- Test protocol: qHTS Validation assay for Inhibitors of Plasmodium falciparum Dd2 growth in vitro; further: nearly all actives have a fitted effect of over 70% in size
- Test parameters: P. falciparum Dd2 in RBCs, SYBR Green growth, 72 h; series mostly up to 28.7 µM
Hit rate of the full screen: of about 4,100 compounds, about 1,600 (39%) were called active. Inconclusive results (about 25%) are left out. The call rests on the fitted dose curve; in most records, active means well fitted inhibition curve with a large enough effect; inconclusive means small, poorly fitted or top-dose-only effect; inactive means no such curve, though single readings can be large or run the other way. The list shows a part of the results.
Returns: one label drawn from 1 = active, 0 = inactive

Please review the entries below; each comes with its answer.
INSERT INTO results (compound, label_value) VALUES
  ('c1ccc(-c2nc(N3CCCCCC3)c3ccccc3n2)nc1', 1),
  ('CC(C)n1nc(OC(C)(C)C(=O)NCCc2cccnc2)c2cc(CN3CCOCC3)ccc21', 0),
  ('CC(C)CCN1CCC(N2CCN(S(=O)(=O)c3ccc4c(c3)CCCC4)CC2)C1=O (centres undefined)', 1),
  ('CC(C)(Oc1nn(CCOc2ccccc2)c2ccccc12)C(=O)NCc1cnccn1', 0);

# lookup: test call for CN1CCN(C(=O)C(C)(C)Oc2nn(Cc3cccc(Cl)c3)c3ccccc23)CC1
1

What would you report for CC(=O)N1CCCc2cc(S(=O)(=O)N3CCCC(C(=O)Nc4ccc(C)c(C)c4)C3)ccc21 (centres undefined) ?
0

What would you report for CCn1cc(C(=O)N2CCN(c3ccc(OC)cc3)CC2)c(=O)c2cc(S(=O)(=O)N3CCOCC3)ccc21 ?
0

What would you report for O=C(CC(c1ccc(F)cc1)c1cn(Cc2ccccc2)c2ccc([N+](=O)[O-])cc12)N1CCOCC1 (centres undefined) ?
1

What would you report for OC1CCN(c2cc(N3CCOC(c4ccc(F)cc4)C3)ncn2)CC1 (centres undefined) ?
0

====

- Test protocol: qHTS Validation assay for Inhibitors of Plasmodium falciparum Dd2 growth in vitro; further: nearly all actives have a fitted effect of over 70% in size
- Test parameters: P. falciparum Dd2 in RBCs, SYBR Green growth, 72 h; series mostly up to 28.7 µM
In all, about 4,100 compounds went through this assay and about 1,600 (39%) were called active. Inconclusive results (about 25%) are left out. The call rests on the fitted dose curve; in most records, active means well fitted inhibition curve with a large enough effect; inconclusive means small, poorly fitted or top-dose-only effect; inactive means no such curve, though single readings can be large or run the other way. The list shows a part of the results.
Returns: one label drawn from active, inactive

Please review the entries below; each comes with its answer.
INSERT INTO results (molecule, label_value) VALUES
  ('COc1cccc(C(=O)Nc2cccc(-c3cn4c(C)csc4n3)c2)c1OC', 'inactive'),
  ('Cc1ccc(S(=O)(=O)Nc2cc(C)cn(Cc3ccc(F)cc3)c2=O)cc1', 'inactive'),
  ('O=c1c([N+](=O)[O-])cccn1Cc1ccc(F)cc1Cl', 'active'),
  ('CC(=O)Nc1ccc(CN2CC(N(C)c3ccccc3C)C2)cc1', 'active'),
  ('O=c1[nH]c(N2CCOCC2)nc2c1CCN(Cc1cccc(C(F)(F)F)c1)CC2', 'inactive'),
  ('CCN1CCN(c2cc(C)c3cc(NC(=O)/C=C/c4cccc(OC)c4OC)ccc3n2)CC1', 'active'),
  ('CC(=O)c1ccc(NC(=O)c2noc3c2CCC3)cc1', 'inactive'),
  ('Cc1ccc(Cl)cc1NC(=O)c1cc(S(=O)(=O)N2CCOCC2)cn1C', 'inactive'),
  ('COc1cccc(CN2CCc3nc(N4CCOCC4)[nH]c(=O)c3CC2)c1OC', 'inactive'),
  ('COc1cccc(CNC(=O)CSc2n[nH]c(-c3ccccc3Cl)n2)c1OC', 'inactive');

# lookup: test call for Cc1ccc(CNC(=O)CN2CCN(Cc3ccc(F)cc3Cl)C2=O)cc1
inactive

What would you report for O=C(Nc1ccc(S(=O)(=O)N2CCOCC2)cc1)c1cc(-c2cc(Cl)ccc2O)n[nH]1 ?
active

What would you report for O=c1[nH]c(N2CCOCC2)nc2c1CCN(Cc1ccccc1C(F)(F)F)CC2 ?
active

What would you report for CCOc1ccc(NC2=C(OC)C(=O)c3ccccc3C2=O)cc1 ?
active

What would you report for Oc1ccc(-c2ccccc2)cc1CN1CCCCCC1 ?
active

====

- Test protocol: qHTS Validation assay for Inhibitors of Plasmodium falciparum Dd2 growth in vitro; further: nearly all actives have a fitted effect of over 70% in size
- Test parameters: P. falciparum Dd2 in RBCs, SYBR Green growth, 72 h; series mostly up to 28.7 µM
Hit rate of the full screen: of about 4,100 compounds, about 1,600 (39%) were called active. Another 25% or so got no clear call; they are omitted. The call rests on the fitted dose curve; in most records, active means well fitted inhibition curve with a large enough effect; inconclusive means small, poorly fitted or top-dose-only effect; inactive means no such curve, though single readings can be large or run the other way. Some of the results follow.
Returns: one label drawn from class 1 = active, class 0 = inactive

INSERT INTO assay_data (molecule, label_value) VALUES
  ('O=C([C@@H]1C[C@H](Oc2ccccc2)CN1C(=O)c1cc2ccccc2[nH]1)N1CCCC1', 'class 0'),
  ('O=C(NC(c1ccccc1)c1cc(Cl)c2cccnc2c1O)c1cccnc1 (stereo not given)', 'class 1'),
  ('Cc1ccc2nc(-c3ccc(Cl)c(NC(=O)c4cccnc4)c3)oc2c1', 'class 0');

# lookup: test call for Cc1cc(C(C)c2ccccc2)c(O)c(CN2CCOCC2)c1C (stereo not given)
class 1

What would you report for O=C(NC(c1ccc(Cl)cc1)c1cc(Cl)c2cccnc2c1O)c1cccnc1 (stereo not given) ?
class 1

====

- Test protocol: qHTS Validation assay for Inhibitors of Plasmodium falciparum Dd2 growth in vitro; further: nearly all actives have a fitted effect of over 70% in size
- Test parameters: P. falciparum Dd2 in RBCs, SYBR Green growth, 72 h; series mostly up to 28.7 µM
Out of some 4,100 compounds screened, about 1,600 (39%) were called active. Another 25% or so got no clear call; they are omitted. Calls come from the whole dose curve; as a rule, active = well fitted inhibition curve with a large enough effect; inconclusive = small, poorly fitted or top-dose-only effect; inactive = no such curve, though single readings can be large or run the other way. The list shows a part of the results.
Returns: one label drawn from active, inactive

INSERT INTO assay_data (molecule, label_value) VALUES
  ('Cn1nnnc1SCCCNCc1cccc(OCc2ccccc2)c1', 'active'),
  ('c1ccc(COc2cncc(-c3cccnc3)c2)cc1', 'inactive'),
  ('CCc1cccc(OC2CN(C(=O)C3CCCN(CC(N)=O)C3)C2)c1 (stereo unspecified)', 'inactive'),
  ('CCOc1ccc2nc(N3CCN(C(=O)C(C)C)CC3)sc2c1', 'inactive'),
  ('CCOC(=O)c1c(S(=O)(=O)N2CCCC(C(=O)N3CCN(c4cccc(C)c4C)CC3)C2)c(C)n(C)c1C (stereo unspecified)', 'active'),
  ('Cc1cc(C)c2nc(N3CCC(C(=O)N4CCCC4)CC3)sc2c1', 'inactive');

# lookup: test call for CCOC(=O)c1c(S(=O)(=O)N2CCC(C(=O)Nc3ccc(OCC)cc3)CC2)c(C)n(C)c1C
inactive

What would you report for Cc1nccn1CC(O)Cn1c2ccccc2c2ccccc21 (stereo unspecified) ?
active

What would you report for CCOc1c(CNCCSc2nnnn2C)cccc1OC ?
inactive

What would you report for Cc1ncc(CN2CCC(C(=O)Nc3ccc(-n4cccn4)cc3)CC2)s1 ?
active

What would you report for CCOC(=O)c1c(C)[nH]c(C)c1S(=O)(=O)N1CCCC(C(=O)N2CCN(c3cc(C)ccc3C)CC2)C1 (stereo unspecified) ?
inactive

====

- Test protocol: qHTS Validation assay for Inhibitors of Plasmodium falciparum Dd2 growth in vitro; further: nearly all actives have a fitted effect of over 70% in size
- Test parameters: P. falciparum Dd2 in RBCs, SYBR Green growth, 72 h; series mostly up to 28.7 µM
Screen size: about 4,100 compounds; about 1,600 (39%) were called active. Another 25% or so got no clear call; they are omitted. Calls follow the shape of the dose curve; as a rule, active = well fitted inhibition curve with a large enough effect; inconclusive = small, poorly fitted or top-dose-only effect; inactive = no such curve, though single readings can be large or run the other way. The list shows a part of the results.
Returns: one label drawn from YES = active, NO = inactive

INSERT INTO assay_data (molecule, label_value) VALUES
  ('COc1cc(OC)c(NC2=CC(=O)C(=O)c3ccccc32)cc1Cl', 'YES'),
  ('CC(C)c1ccc(C2c3[nH]c4ccccc4c3C[C@H]3C(=O)N(c4ccccc4C(=O)N4CCC(C(=O)O)CC4)C(=O)N23)cc1 (stereo not given in full)', 'YES'),
  ('CC(CCc1ccccc1)NCC(O)c1cccc([N+](=O)[O-])c1 (stereo not given)', 'YES');

# lookup: test call for Cc1ncc2n1C(=O)N(C1CCN(Cc3ccnn3C)CC1)C2
NO

What would you report for CCc1noc(-c2cccn3c(CNC(=O)Cc4ccc(Cl)cc4)nnc23)n1 ?
NO

====

- Test protocol: qHTS Validation assay for Inhibitors of Plasmodium falciparum Dd2 growth in vitro; further: nearly all actives have a fitted effect of over 70% in size
- Test parameters: P. falciparum Dd2 in RBCs, SYBR Green growth, 72 h; series mostly up to 28.7 µM
Screen size: about 4,100 compounds; about 1,600 (39%) were called active. About 25% were inconclusive and are not listed. The call rests on the fitted dose curve; in most records, active means well fitted inhibition curve with a large enough effect; inconclusive means small, poorly fitted or top-dose-only effect; inactive means no such curve, though single readings can be large or run the other way. Some of the results follow.
Returns: one label drawn from true = active, false = inactive

Please review the entries below; each comes with its answer.
INSERT INTO assay_data (compound, label_value) VALUES
  ('CCCc1nc2nc(C)c(NS(=O)(=O)c3ccc(F)cc3)c(=O)n2[nH]1', 'false'),
  ('Oc1c(CN2CCCC2)cc(COCc2ccccc2)c2cccnc12', 'true'),
  ('O=S(=O)(c1ccccc1)c1nnn2c1nc(NC1CCN(Cc3ccccc3)CC1)c1cc(Cl)ccc12', 'true'),
  ('CC(C)Cc1nc2nccc(-c3cccs3)n2n1', 'false'),
  ('CC(C)(C)c1ccc(C(=O)N2CCC3(C2)NC(=O)N(Cc2ccc(Cl)cc2)C3=O)cc1 (stereo unspecified)', 'false');

Consider the record given below.
# lookup: test call for CN(C)c1cc(=O)c2ccnc(N3CCN(c4ccccn4)CC3)c2o1
false

Origin of measurements: PubChem BioAssay AID1347416
